solubility (g/100 g solution) for assorted compounds
# ASSAY_NOTES: xn = mol fraction of the nth substance listed, in the solute-free solvent
# TEST_CONTEXT: 298.15 K; x2 = 0.3698
Reply with just the number.

# COMPOUND, MEASUREMENT_NAME, RECORDED_NUMBER
rows = [
    ("CS(=O)(=O)c1ccc(C(O)C(CF)NC(=O)C(Cl)Cl)cc1 (centres undefined) + CCO + O", "solubility (g/100 g solution)", 2.01),
    ("COC(=O)C1=C(C)NC(C)=C(C(=O)OCC(C)C)C1c1ccccc1[N+](=O)[O-] (centres undefined) + CCO + O", "solubility (g/100 g solution)", 3.79),
]

Enquiry: Indicate its recorded solubility (g/100 g solution); the compound in question is O=[N+]([O-])c1cc[nH]n1 + CCO + O
Return: 1.71

Enquiry: Indicate its recorded solubility (g/100 g solution); the compound in question is CC(=O)Nc1ccc(OC(=O)c2ccccc2OC(C)=O)cc1 + CCO + O
Return: 0.255

====

# ASSAY_NOTES: xn = mol fraction of the nth substance listed, in the solute-free solvent
# TEST_CONTEXT: 308.15 K; x2 = 0.9
MEASUREMENT_NAME: solubility (g/100 g solution)

Enquiry: Indicate its recorded solubility (g/100 g solution); the compound in question is CC1(C)SC2C(NC(=O)C(NC(=O)N3CCNC3=O)c3ccccc3)C(=O)N2C1C(=O)O (centres undefined) + CO + CC(C)O
Return: 0.92

Enquiry: Indicate its recorded solubility (g/100 g solution); the compound in question is CN1CCN(C(=O)OC2c3nccnc3C(=O)N2c2ccc(Cl)cn2)CC1 (centres undefined) + CC(C)=O + O
Return: 2.5

Enquiry: Indicate its recorded solubility (g/100 g solution); the compound in question is CCOC(=O)C1=CC2(CC)CCCN3CCc4c(n1c1ccccc41)C32 (centres undefined) + CCO + O
Return: 1.23

Enquiry: Indicate its recorded solubility (g/100 g solution); the compound in question is CC1(C)SC2C(NC(=O)C(NC(=O)N3CCNC3=O)c3ccccc3)C(=O)N2C1C(=O)O (centres undefined) + CCO + CC(C)O
Return: 1.69

====

# ASSAY_NOTES: xn = mol fraction of the nth substance listed, in the solute-free solvent
# TEST_CONTEXT: 313.15 K; x2 = 0.1
MEASUREMENT_NAME: solubility (g/100 g solution)
Reply with just the number.

# MOLECULE, solubility (g/100 g solution)
records = [
    ("CCCCN1CCCCC1C(=O)Nc1c(C)cccc1C.Cl.O (centres undefined) + CO + O", 8.14),
]

Enquiry: Indicate its recorded solubility (g/100 g solution); the molecule in question is CC1(C)SC2C(NC(=O)C(NC(=O)N3CCNC3=O)c3ccccc3)C(=O)N2C1C(=O)O (centres undefined) + CO + CC(C)O
Return: 0.333

Enquiry: Indicate its recorded solubility (g/100 g solution); the molecule in question is CCCCN1CCCCC1C(=O)Nc1c(C)cccc1C.Cl.O (centres undefined) + CCO + O
Return: 5.9

Enquiry: Indicate its recorded solubility (g/100 g solution); the molecule in question is O=c1ccc2ccccc2o1 + CO + O
Return: 0.988
